Assay: Selectivity index, ratio of CC50 for african green monkey Vero cells to MIC for Mycobacterium tuberculosis H37Rv ATCC 27294
Type: functional
Answer each item with its documented Selectivity Index.
Give the value as a plain number.

QUERY: Look up Selectivity Index for this compound: Cc1cc(O)c2c(c1)[C@H]([C@@H](C)CCC(O)C(C)(C)N=[N+]=[N-])CC[C@H]2C (some centres not stated)
RESULT: 1.3

QUERY: Look up Selectivity Index for this compound: Cc1cc(O)c2c(c1)[C@H]([C@@H](C)CCC(N)C(C)(C)O)CC[C@H]2C (some centres not stated)
RESULT: 1.6

QUERY: Look up Selectivity Index for this compound: C/C(=C\CC[C@H](C)[C@@H]1CC[C@@H](C)c2c(O)cc(C)cc21)CO
RESULT: 5.1

QUERY: Look up Selectivity Index for this compound: C/C(C=O)=C\CC[C@H](C)[C@@H]1CC[C@@H](C)c2c(O)cc(C)cc21
RESULT: 4.5

QUERY: Look up Selectivity Index for this compound: Cc1cc(O)c2c(c1)[C@H]([C@@H](C)CCC1OC1(C)C)CC[C@H]2C (mixture of isomers)
RESULT: 6.4

QUERY: Look up Selectivity Index for this compound: Cc1cc(O)c2c(c1)[C@H]([C@@H](C)CCC(N=[N+]=[N-])C(C)(C)O)CC[C@H]2C (some centres not stated)
RESULT: 1.4

QUERY: Look up Selectivity Index for this compound: Cc1cc(O)c2c(c1)[C@H]([C@@H](C)CCC(O)C(C)(C)N)CC[C@H]2C (some centres not stated)
RESULT: 1.4

QUERY: Look up Selectivity Index for this compound: Cc1cc(O)c2c(c1)[C@H]([C@@H](C)CCCC(C)C)CC[C@H]2C
RESULT: 6.3

QUERY: Look up Selectivity Index for this compound: CC(C)=CCC[C@H](C)[C@@H]1CC[C@@H](C)c2c(O)cc(C)cc21
RESULT: 4.9
